Catalogue of Cmax readings, one per entry.
# Assay: Pharmacokinetic study of single intravenous and oral administration in mouse
# Format: in vivo
# Assay context: plasma, 10 mg/kg, PO
Reported metric: Cmax (ng/mL)

* O=C1CCC(N2Cc3cc(C(=O)N[C@H](c4ccc(F)cc4F)C4CCC4)ccc3C2=O)C(=O)N1 (stereo in doubt) [Compound 41] | 1570
* O=C1CCC(N2Cc3cc(C(=O)N[C@H](c4ccc(F)cn4)C4(F)CCC4)ccc3C2=O)C(=O)N1 (stereo in doubt) [Compound 86] | 5690
* O=C1CC[C@H](N2Cc3cc(C(=O)N[C@H](c4ccc(Cl)cn4)C4CCC4)ccc3C2=O)C(=O)N1 (single isomer, unassigned) [Compound 82] | 6080

====

# Experimental target: HiBiT tagged GSPT1 (Homo sapiens, UniProt P15170+Q96SW2)
# Sequence (P15170 whole entry): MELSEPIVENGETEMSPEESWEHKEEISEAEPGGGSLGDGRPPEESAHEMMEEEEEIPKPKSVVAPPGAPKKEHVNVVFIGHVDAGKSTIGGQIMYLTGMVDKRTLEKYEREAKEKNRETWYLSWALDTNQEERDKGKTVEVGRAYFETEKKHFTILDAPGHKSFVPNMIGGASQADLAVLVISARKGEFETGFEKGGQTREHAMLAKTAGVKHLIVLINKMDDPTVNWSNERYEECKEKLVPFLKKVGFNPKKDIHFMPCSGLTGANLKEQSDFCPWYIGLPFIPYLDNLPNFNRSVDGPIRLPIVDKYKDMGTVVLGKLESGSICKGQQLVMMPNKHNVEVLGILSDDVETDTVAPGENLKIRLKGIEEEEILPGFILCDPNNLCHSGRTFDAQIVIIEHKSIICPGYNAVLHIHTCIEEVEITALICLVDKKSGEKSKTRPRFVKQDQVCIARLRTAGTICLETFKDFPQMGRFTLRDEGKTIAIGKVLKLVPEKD
# Sequence (Q96SW2 whole entry): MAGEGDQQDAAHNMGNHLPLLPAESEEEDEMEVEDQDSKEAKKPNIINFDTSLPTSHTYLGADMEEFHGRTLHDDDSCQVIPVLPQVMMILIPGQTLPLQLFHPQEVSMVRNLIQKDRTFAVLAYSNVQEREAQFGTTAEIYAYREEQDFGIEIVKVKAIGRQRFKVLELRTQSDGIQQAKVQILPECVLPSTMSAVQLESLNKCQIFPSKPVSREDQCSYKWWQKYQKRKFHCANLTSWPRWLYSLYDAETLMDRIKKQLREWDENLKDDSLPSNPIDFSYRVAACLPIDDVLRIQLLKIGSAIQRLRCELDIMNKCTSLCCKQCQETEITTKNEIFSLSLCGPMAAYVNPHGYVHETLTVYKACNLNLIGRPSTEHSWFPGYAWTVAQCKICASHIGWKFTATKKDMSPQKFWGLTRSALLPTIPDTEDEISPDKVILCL
# Sequence (Q16531 whole entry partner): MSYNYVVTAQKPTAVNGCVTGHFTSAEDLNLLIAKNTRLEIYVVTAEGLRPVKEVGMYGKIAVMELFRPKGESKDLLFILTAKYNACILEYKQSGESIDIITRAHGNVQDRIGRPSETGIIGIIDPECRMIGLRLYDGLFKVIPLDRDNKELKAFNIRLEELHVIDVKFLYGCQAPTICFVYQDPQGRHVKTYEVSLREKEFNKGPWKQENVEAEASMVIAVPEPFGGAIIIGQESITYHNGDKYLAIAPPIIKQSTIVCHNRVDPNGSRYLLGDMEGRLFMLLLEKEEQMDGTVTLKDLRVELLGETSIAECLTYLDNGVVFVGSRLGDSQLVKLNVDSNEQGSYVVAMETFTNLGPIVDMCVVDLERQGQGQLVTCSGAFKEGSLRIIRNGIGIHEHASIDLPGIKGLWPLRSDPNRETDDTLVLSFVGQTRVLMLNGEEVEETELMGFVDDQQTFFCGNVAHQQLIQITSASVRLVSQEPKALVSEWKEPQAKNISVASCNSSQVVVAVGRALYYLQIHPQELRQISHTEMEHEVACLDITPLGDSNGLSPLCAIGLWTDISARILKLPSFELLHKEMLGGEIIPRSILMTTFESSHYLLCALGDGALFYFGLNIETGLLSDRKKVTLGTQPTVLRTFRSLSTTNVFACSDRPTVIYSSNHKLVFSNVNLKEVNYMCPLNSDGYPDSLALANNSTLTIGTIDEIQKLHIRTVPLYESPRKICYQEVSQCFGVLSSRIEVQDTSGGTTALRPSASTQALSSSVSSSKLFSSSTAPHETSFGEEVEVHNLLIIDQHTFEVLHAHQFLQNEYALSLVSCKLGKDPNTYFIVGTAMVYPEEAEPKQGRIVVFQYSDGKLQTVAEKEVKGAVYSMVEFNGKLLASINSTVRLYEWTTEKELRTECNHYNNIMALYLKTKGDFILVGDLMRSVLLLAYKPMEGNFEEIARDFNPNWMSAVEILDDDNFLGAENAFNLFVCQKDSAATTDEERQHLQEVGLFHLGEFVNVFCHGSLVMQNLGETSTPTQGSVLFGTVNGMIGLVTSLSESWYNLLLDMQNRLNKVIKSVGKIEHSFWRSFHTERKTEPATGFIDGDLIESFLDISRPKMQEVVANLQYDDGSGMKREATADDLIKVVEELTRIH
# Assay: GSPT1 degradation assay (HiBiT assay)
# Type: cell-based
# Assay context: HT-1080 cells, 20 hours; maximum GSPT1 degradation
Rule for this label: Met means HiBiT GSPT1: Dmax is less than 50%; Not met means HiBiT GSPT1: Dmax is at least 50%.

• O=C1CCC(N2Cc3cc(C(=O)N[C@@H](c4c(F)cccc4Cl)C4CCC4)ccc3C2=O)C(=O)N1 (stereo in doubt) [Compound 70] = Not met
• O=C1CC[C@@H](N2Cc3cc(C(=O)N[C@H](c4ccc(Cl)cc4F)C4CCC4)ccc3C2=O)C(=O)N1 (racemic) [Compound 56] = Met
• O=C1CC[C@H](N2Cc3cc(C(=O)N[C@H](c4ccc(Cl)cc4F)C4CCC4)ccc3C2=O)C(=O)N1 (racemic) [Compound 55] = Met
• O=C1CC[C@@H](N2Cc3cc(C(=O)N[C@H](c4ccc(F)cc4)C4CCC4)ccc3C2=O)C(=O)N1 (relative stereo) [Compound 8] = Met
• O=C1CC[C@H](N2Cc3cc(C(=O)N[C@H](c4ccc(F)cc4)C4CCCC4)ccc3C2=O)C(=O)N1 (racemic) [Compound 63] = Met
• O=C1CCC(N2Cc3cc(C(=O)N[C@@H](c4ccc(Cl)cn4)C4CCC4)ccc3C2=O)C(=O)N1 (stereo in doubt) [Compound 77] = Met

====

# Experimental target: HiBiT tagged CK1α (Homo sapiens, UniProt P48729+Q96SW2)
# Sequence (P48729 whole entry): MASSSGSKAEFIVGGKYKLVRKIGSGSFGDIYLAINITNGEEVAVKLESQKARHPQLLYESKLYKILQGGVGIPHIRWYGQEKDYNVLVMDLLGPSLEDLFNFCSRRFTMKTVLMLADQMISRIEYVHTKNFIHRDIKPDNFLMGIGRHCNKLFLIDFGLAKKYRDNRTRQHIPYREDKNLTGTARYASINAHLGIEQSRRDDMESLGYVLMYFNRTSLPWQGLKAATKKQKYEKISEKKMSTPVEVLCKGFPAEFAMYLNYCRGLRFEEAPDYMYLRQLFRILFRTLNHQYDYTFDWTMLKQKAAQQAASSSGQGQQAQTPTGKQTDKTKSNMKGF
# Sequence (Q96SW2 whole entry): as the sequence (Q96SW2 whole entry) above
# Sequence (Q16531 whole entry partner): as the sequence (Q16531 whole entry partner) above
# Assay: CK1α degradation assay (HiBiT assay)
# Type: cell-based
# Assay context: HT-1080, HT-1080 cells, 20 hours; maximum CK1α degradation
Reported metric: Dmax (%)

- O=C1CCC(N2Cc3cc(C(=O)N[C@@H](c4ccc(F)cc4F)C4CCC4)ccc3C2=O)C(=O)N1 (stereo in doubt) [Compound 42]: 57.7
- O=C1CCC(N2Cc3cc(C(=O)NC(c4ccc(F)cc4)C4CCCC4)ccc3C2=O)C(=O)N1 (stereo not drawn) [Compound 37]: 70.8
- O=C1CCC(N2Cc3cc(C(=O)N[C@H](c4ccc(F)cc4Cl)C4CCC4)ccc3C2=O)C(=O)N1 (stereo in doubt) [Compound 73]: 71.4
- O=C1CC[C@H](N2Cc3cc(C(=O)N[C@H](c4ccc(Cl)cn4)C4CCC4)ccc3C2=O)C(=O)N1 (single isomer, unassigned) [Compound 82]: 66.3
- Cc1ccccc1[C@@H](NC(=O)c1ccc2c(c1)CN(C1CCC(=O)NC1=O)C2=O)C1CC1 (stereo in doubt) [Compound 39]: 61
- O=C1CCC(N2Cc3cc(C(=O)N[C@H](c4ncccc4Cl)C4CCC4)ccc3C2=O)C(=O)N1 (stereo in doubt) [Compound 18]: 66

====

# Assay: Pharmacokinetic study of single intravenous and oral administration in mouse
# Type: in vivo
# Assay context: plasma, 10 mg/kg, PO
Reported metric: AUC(0-inf) (ng·h/mL)

* O=C1CCC(N2Cc3cc(C(=O)N[C@H](c4ccc(F)cc4F)C4CCC4)ccc3C2=O)C(=O)N1 (stereo in doubt) [Compound 41] | 5870
* O=C1CC[C@H](N2Cc3cc(C(=O)N[C@H](c4ccc(Cl)cn4)C4CCC4)ccc3C2=O)C(=O)N1 (single isomer, unassigned) [Compound 82] | 13300
* O=C1CCC(N2Cc3cc(C(=O)N[C@H](c4ccc(F)cn4)C4(F)CCC4)ccc3C2=O)C(=O)N1 (stereo in doubt) [Compound 86] | 14900

====

# Assay: Pharmacokinetic study of single intravenous and oral administration in mouse
# Type: in vivo
# Assay context: plasma, 10 mg/kg, PO
Reported metric: half-life (h)

* O=C1CCC(N2Cc3cc(C(=O)N[C@H](c4ccc(F)cn4)C4(F)CCC4)ccc3C2=O)C(=O)N1 (stereo in doubt) [Compound 86] | 2.12
* O=C1CC[C@H](N2Cc3cc(C(=O)N[C@H](c4ccc(Cl)cn4)C4CCC4)ccc3C2=O)C(=O)N1 (single isomer, unassigned) [Compound 82] | 2.03
* O=C1CCC(N2Cc3cc(C(=O)N[C@H](c4ccc(F)cc4F)C4CCC4)ccc3C2=O)C(=O)N1 (stereo in doubt) [Compound 41] | 2.72

====

# Experimental target: HiBiT tagged CK1α (Homo sapiens, UniProt P48729+Q96SW2)
# Assay: CK1α degradation assay (HiBiT assay)
# Format: cell-based
# Assay context: HT-1080 cells, 20 hours; concentration at 50% CK1α degradation
Catalogue of DC50 readings, one per entry.
Reported metric: DC50 (nM)

• O=C1CCC(N2Cc3cc(C(=O)N[C@H](c4ccc(F)cc4)C4(O)CC4)ccc3C2=O)C(=O)N1 (stereo partly shown) = 721
• O=C1CCC(N2Cc3cc(C(=O)NC(c4ccc(Cl)cc4F)C4CC4)ccc3C2=O)C(=O)N1 (stereo not shown) = 284
• O=C1CC[C@H](N2Cc3cc(C(=O)N[C@H](c4ccc(Cl)cc4F)C4CCC4)ccc3C2=O)C(=O)N1 (racemic) [Compound 57] = 128
• O=C1CCC(N2Cc3cc(C(=O)NC(c4ccc(F)c(F)c4)C4CCC4)ccc3C2=O)C(=O)N1 (single isomer, unassigned) [Compound 47] = 2960
• O=C1CCC(N2Cc3cc(C(=O)N[C@@H](c4ccc(Cl)cc4)C4CC4)ccc3C2=O)C(=O)N1 (stereo in doubt) = 180
• O=C1CC[C@@H](N2Cc3cc(C(=O)N[C@H](c4ccc(Cl)cc4F)C4CCC4)ccc3C2=O)C(=O)N1 (racemic) [Compound 54] = 1110
• O=C1CCC(N2Cc3cc(C(=O)N[C@@H](c4cccc(C(F)(F)F)c4)C4CC4)ccc3C2=O)C(=O)N1 (stereo in doubt) = 1300

====

# Experimental target: HiBiT tagged CK1α (Homo sapiens, UniProt P48729+Q96SW2)
# Assay: CK1α degradation assay (HiBiT assay)
# Type: cell-based
# Assay context: HT-1080 cells, 20 hours; concentration at 50% CK1α degradation
Rule for this label: MET means DC50 is less than 80 nM; NOT MET means DC50 is at least 80 nM.

- O=C1CC[C@@H](N2Cc3cc(C(=O)N[C@H](c4ccc(Cl)cc4F)C4CCC4)ccc3C2=O)C(=O)N1 (racemic) [Compound 56]: NOT MET
- O=C1CC[C@H](N2Cc3cc(C(=O)N[C@H](c4ccc(F)cc4)C4CCCC4)ccc3C2=O)C(=O)N1 (racemic) [Compound 60]: MET
- O=C1CCC(N2Cc3cc(C(=O)N[C@@H](c4c(F)cccc4Cl)C4CCC4)ccc3C2=O)C(=O)N1 (stereo in doubt) [Compound 70]: MET
- O=C1CCC(N2Cc3cc(C(=O)N[C@H](c4ccc(F)cc4Cl)C4CC4)ccc3C2=O)C(=O)N1 (stereo in doubt) [Compound 13]: NOT MET
- Cc1ccc(NC(=O)NCc2ccc3c(c2)CN(C2CCC(=O)NC2=O)C3=O)cc1Cl (stereo not drawn) [CC-885, reference compound]: NOT MET

====

# Assay: KG-1a cell proliferation assay (CTG cell viability, counter screen for GSPT1-mediated cytotoxicity)
# Assay type: cell-based
# Assay context: human, KG-1a cells (AML cell line harboring p53 mutation), lowest cell viability, highest concentration 10 μM, read-out: CTG cell viability assay KG1a: Ymin
Reported metric: viability at 120 h, 10 µM (%)

• O=C1CCC(N2Cc3cc(C(=O)NC(c4ccc(F)cc4)C4CC(F)(F)C4)ccc3C2=O)C(=O)N1 (centres unmarked) [Compound 4] = 90.9
• O=C1CCC(N2Cc3cc(C(=O)N[C@H](c4ccc(Cl)cc4)C4CC(F)(F)C4)ccc3C2=O)C(=O)N1 (stereo in doubt) [Compound 35] = 92.1

====

# Experimental target: HiBiT tagged CK1α (Homo sapiens, UniProt P48729+Q96SW2)
# Assay: CK1α degradation assay (HiBiT assay)
# Type: cell-based
# Assay context: HT-1080 cells, 20 hours; concentration at 50% CK1α degradation
Rule for this label: rule met means DC50 is less than 200 nM; rule not met means DC50 is at least 200 nM.

* O=C1CCC(N2Cc3cc(C(=O)N[C@@H](c4ccc(F)cc4Cl)C4CCC4)ccc3C2=O)C(=O)N1 (stereo in doubt) | rule met
* O=C1CC[C@@H](N2Cc3cc(C(=O)NC(c4ccc(F)cc4)C4CCCC4)ccc3C2=O)C(=O)N1 (single isomer, unassigned) | rule met
* O=C1CC[C@@H](N2Cc3cc(C(=O)N[C@H](c4ccc(F)cc4Cl)C4CCC4)ccc3C2=O)C(=O)N1 (racemic) [Compound 52] | rule met
* Cc1cccc([C@H](NC(=O)c2ccc3c(c2)CN(C2CCC(=O)NC2=O)C3=O)C2CC2)c1 (stereo in doubt) | rule not met
* O=C1CC[C@@H](N2Cc3cc(C(=O)N[C@H](c4ccc(F)cc4)C4CCC4)ccc3C2=O)C(=O)N1 (relative stereo) | rule met
* O=C1CCC(N2Cc3cc(C(=O)N[C@H](c4ncccc4F)C4(F)CCC4)ccc3C2=O)C(=O)N1 (stereo in doubt) | rule not met

Values compiled from patent US12673936B2.
